Measured Mean % accompanies every entry in the list below.
- Target or system: cloned human or rodent CNS receptors, channels, and transporters (PDSP panel) (Homo sapiens, UniProt P34969)
- Construct: expressed in transfected cells
- Sequence (P34969 whole entry): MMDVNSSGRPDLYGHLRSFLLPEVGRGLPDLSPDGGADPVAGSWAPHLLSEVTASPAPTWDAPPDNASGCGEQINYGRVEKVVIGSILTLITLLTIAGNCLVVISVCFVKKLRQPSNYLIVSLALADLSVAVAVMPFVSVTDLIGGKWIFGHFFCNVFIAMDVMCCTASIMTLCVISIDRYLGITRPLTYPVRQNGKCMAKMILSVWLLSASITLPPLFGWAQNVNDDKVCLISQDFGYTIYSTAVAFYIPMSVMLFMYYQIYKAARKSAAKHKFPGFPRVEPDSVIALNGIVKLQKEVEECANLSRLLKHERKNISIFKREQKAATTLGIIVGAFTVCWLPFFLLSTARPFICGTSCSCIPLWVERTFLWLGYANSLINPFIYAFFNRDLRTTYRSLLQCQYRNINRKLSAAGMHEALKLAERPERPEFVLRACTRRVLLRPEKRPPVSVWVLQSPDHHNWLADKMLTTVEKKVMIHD
- Procedure text: PDSP GPCR panel primary binding assays at 10 μM
- Experimental context: 5-HT7A; primary assay, mean inhibition
Lab book: enter the figure in %, no units written.

These recorded examples may help you get a feel for the data.
# input Quote Mean % reported for CCC(=O)N1CCC(NC(=O)Nc2ccc(OC(F)(F)F)cc2)CC1 [UNC10302681A, TPPU] please.
# output 28.67

# input Provide Mean % value for the following compound: O=C(NC1CC1)C(=O)C(Cc1ccccc1)NC(=O)[C@H]1CCC(=O)N1Cc1ccccc1 (stereo partly shown) [UNC10302676A, ABT-957 (Alicapistat)]
# output 15.15

# input Give a short answer stating reported Mean % for CC(=O)N1CCC(NC(=O)NC23CC4CC(CC(C4)C2)C3)CC1 [UNC10302683A, AR9281] .
# output 20.3

***
# input In one line, give reported Mean % of the entry CNc1nc(C)nc(N[C@H]2CCC[C@@H](C(=O)NCc3ccc(C#N)cc3C(F)(F)F)C2)n1 [UNC10302679A, GSK2256294A] .
# output 35.21

Source: paper PMC9005681
